Molecular target: IAP (Homo sapiens, UniProt P09923)
Construct: made in house; host or cells: COS-1 cells, transient expression; dialyzed serum-free conditioned medium
Sequence (P09923 20-503 limits assumed): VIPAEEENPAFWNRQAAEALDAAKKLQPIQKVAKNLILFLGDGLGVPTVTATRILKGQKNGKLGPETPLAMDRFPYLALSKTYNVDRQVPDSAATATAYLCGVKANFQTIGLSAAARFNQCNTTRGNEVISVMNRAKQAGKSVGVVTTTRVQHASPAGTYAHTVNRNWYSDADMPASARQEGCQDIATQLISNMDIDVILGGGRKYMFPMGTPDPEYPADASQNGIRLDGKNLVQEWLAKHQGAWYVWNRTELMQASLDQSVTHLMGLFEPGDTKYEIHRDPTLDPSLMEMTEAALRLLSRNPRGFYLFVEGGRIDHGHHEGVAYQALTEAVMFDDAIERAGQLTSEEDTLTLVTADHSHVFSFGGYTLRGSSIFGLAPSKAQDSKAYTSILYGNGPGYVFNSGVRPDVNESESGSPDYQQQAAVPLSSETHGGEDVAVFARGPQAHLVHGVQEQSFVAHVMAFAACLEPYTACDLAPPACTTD
Test: IAP luminescent assay (CDP-star)
Assay type: biochemical
Conditions: catechol series; read-out: IAP IC50
Text: Selectivity of Primary Actives Against other Phosphatases: To assess the selectivity of compounds across the alkaline phosphatase family, luminescent assays were developed for human PLAP and human IAP with the same CDP-Star reagent. Development of the novel luminescent TNAP assay using CDP-star substrate and detailed protocol of its application for HTS is described in more detail elsewhere. […]
Assign pIC50 to each entry below.
Give only the number. pIC50 is defined as minus log10 of concentration in molar units.

Name the recorded pIC50 of the item Cc1cc(C)nc(SCC(=O)c2ccc(O)c(O)c2)n1 in your answer.
4.31

Name the recorded pIC50 of the item O=C(Cn1ccnc1)c1ccc(O)c(O)c1 in your answer.
4.52

Hey, just so you know, these numbers are from paper PMC3392958.
